A compilation of published IC50 results with Type-1 angiotensin II receptor A (Rattus norvegicus, UniProt P25095).
observedProperty: IC50 (µM)

[[record]]
cpdsmiles = "CCCCc1ncc(/C=C2/C(=O)NC(=O)N2C)n1Cc1ccc(C(=O)O)cc1"
assaysystem = "Type-1 angiotensin II receptor A (Rattus norvegicus, UniProt P25095)"
experimentalresult = 0.0838

[[record]]
cpdsmiles = "CCc1nc2c(C)cc(-c3cn4c(n3)CCCC4)cc2n1Cc1ccc(-c2ccccc2S(=O)(=O)NC(=O)NC2CCCCC2)cc1"
assaysystem = "Type-1 angiotensin II receptor A (Rattus norvegicus, UniProt P25095)"
experimentalresult = 0.073

[[record]]
cpdsmiles = "CCCCc1ncc(C=C2C(=O)N(CCCC)c3ccccc32)n1Cc1ccc(C(=O)OC)cc1Cl"
assaysystem = "Type-1 angiotensin II receptor A (Rattus norvegicus, UniProt P25095)"
experimentalresult = 0.11

[[record]]
cpdsmiles = "CCCc1ncc(/C=C2/C(=O)N(CC(=O)O)c3ccccc32)n1Cc1ccc(C(=O)O)cc1"
assaysystem = "Type-1 angiotensin II receptor A (Rattus norvegicus, UniProt P25095)"
experimentalresult = 0.098

[[record]]
cpdsmiles = "CCCc1nc2c(C)cc(-c3nc4ccccc4n3C)cc2n1Cc1ccc(-c2ccccc2S(=O)(=O)NC(=O)c2ccccc2)cc1"
assaysystem = "Type-1 angiotensin II receptor A (Rattus norvegicus, UniProt P25095)"
experimentalresult = 0.078

